Molecular target: αvβ3 integrin (Homo sapiens, UniProt P05106+P06756)
Sequence (P06756 31-889 limits assumed): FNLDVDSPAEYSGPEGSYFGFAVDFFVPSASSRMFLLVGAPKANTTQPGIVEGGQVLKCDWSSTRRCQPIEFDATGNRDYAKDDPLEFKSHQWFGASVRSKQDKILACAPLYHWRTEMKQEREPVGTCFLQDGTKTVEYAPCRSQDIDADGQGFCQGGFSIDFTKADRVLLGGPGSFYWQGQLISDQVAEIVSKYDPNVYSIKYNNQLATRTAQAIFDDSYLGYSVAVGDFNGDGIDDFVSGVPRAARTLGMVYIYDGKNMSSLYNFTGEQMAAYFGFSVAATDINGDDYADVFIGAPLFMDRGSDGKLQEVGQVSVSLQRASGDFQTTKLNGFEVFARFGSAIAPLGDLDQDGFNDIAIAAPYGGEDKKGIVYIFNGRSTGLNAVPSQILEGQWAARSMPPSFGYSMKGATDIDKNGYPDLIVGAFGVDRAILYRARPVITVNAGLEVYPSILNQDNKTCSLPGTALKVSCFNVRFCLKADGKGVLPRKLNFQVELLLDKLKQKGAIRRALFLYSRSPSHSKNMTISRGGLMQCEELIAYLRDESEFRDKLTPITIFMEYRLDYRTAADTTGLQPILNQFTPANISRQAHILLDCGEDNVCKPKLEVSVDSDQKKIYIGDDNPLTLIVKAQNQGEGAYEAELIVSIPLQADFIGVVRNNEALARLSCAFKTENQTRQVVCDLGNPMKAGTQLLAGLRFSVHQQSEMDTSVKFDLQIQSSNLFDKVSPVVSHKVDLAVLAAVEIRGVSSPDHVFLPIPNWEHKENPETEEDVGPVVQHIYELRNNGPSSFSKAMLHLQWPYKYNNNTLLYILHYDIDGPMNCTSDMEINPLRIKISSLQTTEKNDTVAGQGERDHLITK
Sequence (P06756 891-1048 partner limits assumed): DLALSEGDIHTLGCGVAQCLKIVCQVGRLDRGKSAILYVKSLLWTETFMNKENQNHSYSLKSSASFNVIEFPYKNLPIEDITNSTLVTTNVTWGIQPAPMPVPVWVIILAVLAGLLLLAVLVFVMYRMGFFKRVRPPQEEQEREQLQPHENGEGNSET
Sequence (P05106 27-788): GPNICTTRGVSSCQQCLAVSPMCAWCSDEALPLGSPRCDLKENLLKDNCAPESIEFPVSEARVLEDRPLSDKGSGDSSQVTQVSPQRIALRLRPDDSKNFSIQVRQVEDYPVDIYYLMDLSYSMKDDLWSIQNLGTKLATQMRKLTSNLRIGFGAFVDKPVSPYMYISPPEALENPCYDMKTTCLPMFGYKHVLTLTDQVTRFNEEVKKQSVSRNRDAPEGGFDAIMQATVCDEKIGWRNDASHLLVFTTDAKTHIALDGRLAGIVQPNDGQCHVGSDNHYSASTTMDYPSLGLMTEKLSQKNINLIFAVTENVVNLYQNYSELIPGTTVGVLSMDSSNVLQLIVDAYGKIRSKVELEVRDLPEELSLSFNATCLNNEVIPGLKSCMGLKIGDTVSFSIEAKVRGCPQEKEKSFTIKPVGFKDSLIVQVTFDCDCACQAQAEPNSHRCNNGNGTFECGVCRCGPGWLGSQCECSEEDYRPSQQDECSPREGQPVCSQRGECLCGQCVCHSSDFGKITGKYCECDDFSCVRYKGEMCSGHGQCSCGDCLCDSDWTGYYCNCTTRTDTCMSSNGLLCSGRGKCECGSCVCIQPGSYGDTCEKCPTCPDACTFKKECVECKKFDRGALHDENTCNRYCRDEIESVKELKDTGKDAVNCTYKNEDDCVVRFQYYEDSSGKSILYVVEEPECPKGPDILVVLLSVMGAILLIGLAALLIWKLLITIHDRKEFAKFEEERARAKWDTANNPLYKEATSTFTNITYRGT
Test: Yeast-displayed peptide binding to soluble αvβ3 integrin, flow cytometry
Conditions: yeast-displayed peptides

>  <SUBSTANCE>
GCVRLHESCLGQQVPCCDPCATCYCTGRGDSCYCRKLGTAMNPCSRT [RGD-AgRP#2]

>  <integrin binding compared in words>
RGD-AgRP #1<#2, <#3

$$$$
>  <SUBSTANCE>
CVRLHESCLGQQVPCCDPCATCYCTGRGDSPASCYCRKLGTAMNPCSRT [RGD-AgRP#3]

>  <integrin binding compared in words>
RGD-AgRP #1<#2, <#3

$$$$
>  <SUBSTANCE>
GCVRLHESCLGQQVPCCDPCATCYCRGDCYCRKLGTAMNPCSRT [RGD-AgRP#1]

>  <integrin binding compared in words>
RGD-AgRP #1<#2, <#3

$$$$
